Origin of the recorded values: the Immune Epitope Database (IEDB)

- TESTED_TARGET: HLA-B*46:01
- ASSAY_DETAILS: IEDB peptide-MHC binding, purified MHC/direct/fluorescence; filed as Kd, often an IC50 or EC50 that approximates it; bounds were set here for any values at or beyond the usual limits of such assays
- EXPERIMENTAL_CONDITIONS: source organism: Dengue virus
READOUT_LABEL: Kd

Request: Requested field: Kd. Item: KLQLKGMSY
Result: ≥ 20 µM

---

- TESTED_TARGET: HLA-A*03:01
- ASSAY_DETAILS: IEDB peptide-MHC binding, purified MHC/direct/fluorescence; filed as Kd, often an IC50 or EC50 that approximates it; bounds were set here for any values at or beyond the usual limits of such assays
- EXPERIMENTAL_CONDITIONS: source organism: Escherichia coli O157:H7
READOUT_LABEL: pKd
pKd (log units): -log10 of the concentration in mol/L.

{"columns": ["RESIDUE_STRING", "pKd"],
 "data": [
  ["KLAETRMGY", 7.15]
]}

Here's the next entry for you.
Request: Requested field: pKd. Item: GMLVGRLGK
Result: 7.53
